melting point listing for selected molecules.

Recorded melting point of O=C(CCc1nc(-c2ccccn2)no1)NC1CCN(Cc2ccc(Cl)c(Cl)c2)CC1 , please.
155 °C

Recorded melting point of O=C(OCCc1ccccc1)c1ccc2cc(O)c(O)cc2c1 , please.
175 to 176 °C

Recorded melting point of COC(=O)c1c(N)cc(Cl)cc1[N+](=O)[O-] , please.
114 to 116 °C

Recorded melting point of CC(C)Oc1nccc2c1C(c1ccccc1C(F)(F)F)c1c(ccnc1OC(C)C)N2 , please.
196 to 197 °C

Recorded melting point of COc1cccc(/C=C/c2cccc(C(=O)O)c2)c1 , please.
195 to 198 °C

Here's the next entry for you.
Recorded melting point of O=S(=O)(NCCCO)c1c(Cl)cc(Cl)cc1Cl , please.
104 to 106 °C

###

melting point listing for selected molecules.

Solved cases below.
Recorded melting point of O=C1NCCc2c(Cl)cccc21 , please.
143 to 148 °C

Recorded melting point of CCCCNC(=S)Nc1ccc(NNC=O)c(OC)c1 , please.
130 to 132 °C

Recorded melting point of COc1ccc2c(c1)c1c(n2C(=O)c2ccc(F)cc2)CCC(C(=O)O)C1 (stereo not given) , please.
258 to 260 °C

Recorded melting point of CCCCCCCCNC(=O)Cc1c(C)cc(C(C)(C)C)c(O)c1C , please.
101 to 104 °C

Recorded melting point of O=Cc1c[nH]c2c1ccc1c3cc(Br)ccc3[nH]c12 , please.
> 250 °C

Recorded melting point of CC1(C)Oc2ccc(C#N)cc2[C@@H](NC2=CC(=O)CC2)[C@@H]1O (relative stereo) , please.
174 to 176 °C

Others:
Recorded melting point of Cc1nc2c(N)nc3c(c2n1CCOCCS(C)(=O)=O)CCCC3 , please.
173 to 175 °C

Recorded melting point of CCO[PH](=O)OP(=O)(CNC(C)(c1ccccc1)c1cc(C(C)(C)C)c(O)c(C(C)(C)C)c1)OCC (stereo not given) , please.
95 to 110 °C

Recorded melting point of CC(c1oc2ccccc2c(=O)c1-c1cccc(F)c1)n1nc(-c2csc(C=O)c2)c2c(N)ncnc21 (stereo not given) , please.
192 to 195 °C

Recorded melting point of COc1cc2ncnc(Nc3cccc(C)c3)c2c(N)c1OC , please.
181 to 182 °C

###

melting point listing for selected molecules.

Solved cases below.
Recorded melting point of CCOC(=O)c1cc(O)c2c(OC(C)C)ccc(Br)c2c1 , please.
106 °C

Recorded melting point of CCOC(=O)C(=O)c1csc(NC(=O)CCl)n1 , please.
178 to 180 °C

Recorded melting point of O=C1NCCC[C@@H]1NS(=O)(=O)c1cccc(C(F)(F)F)c1 , please.
158 to 160 °C

Recorded melting point of CNC(=O)N1N=C(c2ccc([N+](=O)[O-])c(C)c2)c2cc3c(cc2CC1C)OCO3 (stereo not given) , please.
221 to 229 °C

Recorded melting point of O=c1[nH]c(=O)n(CCCCN2CCC(OC(c3ccccc3)c3ccccc3)CC2)c2ccc([N+](=O)[O-])cc12 , please.
211 to 213 °C

Here's the next entry for you.
Recorded melting point of O=C1CCCCC1c1c[nH]c2ccccc12 (stereo not given) , please.
122 to 124 °C

Cited source: a melting point compilation (Tetko et al.; mined from patent text by program, amines drawn as free bases though some values may be those of a salt)
